test system: PPARg DBDmut:RXRa IVT, anti-PPARg (DBD mutation: PPARg1 K132A/R137A, NR concentration 270 nM, RXRa partner concentration 90 nM); assay: PBM binding z-score (relative to random genomic background probes); higher = stronger binding; sequences stand for … in GC…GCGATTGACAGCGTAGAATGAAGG
Below, each entry is listed alongside its reported PBM binding z-score.
property-label: PBM binding z-score

[
  {
    "monomer-sequence": "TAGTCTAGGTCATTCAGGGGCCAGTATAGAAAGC",
    "readout-number": 1.69
  },
  {
    "monomer-sequence": "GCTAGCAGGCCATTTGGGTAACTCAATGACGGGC",
    "readout-number": -0.238
  },
  {
    "monomer-sequence": "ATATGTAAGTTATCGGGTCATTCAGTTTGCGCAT",
    "readout-number": 1.57
  },
  {
    "monomer-sequence": "TCGAGTAGGTTAGTCGGGGCATTAAGCCAACATA",
    "readout-number": -0.456
  },
  {
    "monomer-sequence": "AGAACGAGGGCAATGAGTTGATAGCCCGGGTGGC",
    "readout-number": 0.0916
  },
  {
    "monomer-sequence": "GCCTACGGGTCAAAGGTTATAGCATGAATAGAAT",
    "readout-number": 1.03
  },
  {
    "monomer-sequence": "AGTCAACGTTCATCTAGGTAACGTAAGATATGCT",
    "readout-number": 0.919
  },
  {
    "monomer-sequence": "GCAGACAGGTGAAACGCAGGGAACTCAGGGTGGC",
    "readout-number": 0.0548
  },
  {
    "monomer-sequence": "ACTTACGGGTAAACGAGGTTATAGCACGCGTATA",
    "readout-number": -0.07
  },
  {
    "monomer-sequence": "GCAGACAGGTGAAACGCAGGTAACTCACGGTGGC",
    "readout-number": 0.104
  },
  {
    "monomer-sequence": "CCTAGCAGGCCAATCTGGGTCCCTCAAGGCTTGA",
    "readout-number": -1.33
  },
  {
    "monomer-sequence": "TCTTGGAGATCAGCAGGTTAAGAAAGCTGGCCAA",
    "readout-number": -0.469
  },
  {
    "monomer-sequence": "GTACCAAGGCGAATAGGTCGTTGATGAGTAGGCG",
    "readout-number": -0.611
  },
  {
    "monomer-sequence": "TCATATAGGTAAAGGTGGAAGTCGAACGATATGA",
    "readout-number": 1.27
  },
  {
    "monomer-sequence": "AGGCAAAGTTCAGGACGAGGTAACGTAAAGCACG",
    "readout-number": 0.287
  },
  {
    "monomer-sequence": "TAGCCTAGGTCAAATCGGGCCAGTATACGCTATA",
    "readout-number": 0.169
  },
  {
    "monomer-sequence": "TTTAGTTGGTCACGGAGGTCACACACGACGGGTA",
    "readout-number": 1.78
  },
  {
    "monomer-sequence": "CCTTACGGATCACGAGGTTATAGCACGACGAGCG",
    "readout-number": -0.412
  },
  {
    "monomer-sequence": "CTCGAAAGGTCGGGCTCAGGTGAGTATACCAAAC",
    "readout-number": 0.0395
  },
  {
    "monomer-sequence": "CCTCGGATGACAGAAGGTCAGAGCTGTCCGCTTT",
    "readout-number": -1.19
  },
  {
    "monomer-sequence": "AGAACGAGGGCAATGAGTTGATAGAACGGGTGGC",
    "readout-number": 0.559
  },
  {
    "monomer-sequence": "AATACAGGGTCACTAGGCCAGCGTAGGTACGAAT",
    "readout-number": 1.74
  },
  {
    "monomer-sequence": "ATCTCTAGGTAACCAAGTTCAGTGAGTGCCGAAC",
    "readout-number": 0.349
  },
  {
    "monomer-sequence": "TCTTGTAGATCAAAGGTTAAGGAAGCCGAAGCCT",
    "readout-number": 1.3
  },
  {
    "monomer-sequence": "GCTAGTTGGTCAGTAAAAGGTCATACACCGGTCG",
    "readout-number": -0.0949
  },
  {
    "monomer-sequence": "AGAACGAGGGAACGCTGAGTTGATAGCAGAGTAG",
    "readout-number": -0.0244
  }
]

Where do these numbers come from? They come from the supplement of paper PMC6555819.
